- METHOD_DESCRIPTION: 14-day toxicity experiment on rats: toxicokinetics
- Type: in vivo, SD rats
- EXPERIMENTAL_SETUP: SD, rat, plasma, po, 30 mg/kg, 30 mpk oral, Day 1, plasma; read-out: AUC(0-24)
Assign AUC(0-t) to each entry below.
Respond with the bare value in µg·h/mL.

AUC(0-t) reading for CC#Cc1ccc2c(-c3ccc(Cl)cc3O)nnc(NC[C@H](O)CO)c2c1 [Compound 062] : 279

AUC(0-t) reading for CC(C)(O)CNc1nnc(-c2ccc(Cl)cc2O)c2ccncc12 [Control compound] : 248

* * *

Assign Cmax to each entry below.
- METHOD_DESCRIPTION: 14-day toxicity experiment on rats: toxicokinetics
- Type: in vivo, SD rats
- EXPERIMENTAL_SETUP: SD, rat, plasma, po, 60 mg/kg, 60 mpk oral, Day 1, plasma
- Experimental: Test Example 7 14-Day Toxicity Experiment on Rats SD rats were orally gavaged with compound 062 and the control compound once a day for a total of 14 times. The toxic reactions caused by compound 062 and the control compound were observed and their toxicokinetics were studied. Oral gavage. […] The dosing frequency was once a day for 14 consecutive days, and the dosing amount was 10 mL/kg (the dosing amount was calculated based on the most recent weight). […]
Respond with the bare value in ng/mL.

Cmax reading for CC#Cc1ccc2c(-c3ccc(Cl)cc3O)nnc(NC[C@H](O)CO)c2c1 [Compound 062] : 41100

Cmax reading for CC(C)(O)CNc1nnc(-c2ccc(Cl)cc2O)c2ccncc12 [Control compound] : 21400

* * *

Assign Cmax to each entry below.
- METHOD_DESCRIPTION: 14-day toxicity experiment on rats: toxicokinetics
- Format: in vivo, SD rats
- EXPERIMENTAL_SETUP: SD, rat, plasma, po, 30 mg/kg, 30 mpk oral, Day 14, plasma
Respond with the bare value in ng/mL.

Cmax reading for CC(C)(O)CNc1nnc(-c2ccc(Cl)cc2O)c2ccncc12 [Control compound] : 13200

Cmax reading for CC#Cc1ccc2c(-c3ccc(Cl)cc3O)nnc(NC[C@H](O)CO)c2c1 : 31700

* * *

- METHOD_DESCRIPTION: 14-day toxicity experiment on rats: toxicokinetics
- Format: in vivo, SD rats
- EXPERIMENTAL_SETUP: SD, rat, plasma, po, 60 mg/kg, 60 mpk oral, Day 1, plasma; read-out: AUC(0-24)
Assign AUC(0-t) to each entry below.
Respond with the bare value in µg·h/mL.

AUC(0-t) reading for CC#Cc1ccc2c(-c3ccc(Cl)cc3O)nnc(NC[C@H](O)CO)c2c1 [Compound 062] : 622

AUC(0-t) reading for CC(C)(O)CNc1nnc(-c2ccc(Cl)cc2O)c2ccncc12 [Control compound] : 360

* * *

- TEST_TARGET: NLRP3 (Homo sapiens, UniProt Q96P20)
- Construct: endogenous in cells
- Sequence (Q96P20 whole entry): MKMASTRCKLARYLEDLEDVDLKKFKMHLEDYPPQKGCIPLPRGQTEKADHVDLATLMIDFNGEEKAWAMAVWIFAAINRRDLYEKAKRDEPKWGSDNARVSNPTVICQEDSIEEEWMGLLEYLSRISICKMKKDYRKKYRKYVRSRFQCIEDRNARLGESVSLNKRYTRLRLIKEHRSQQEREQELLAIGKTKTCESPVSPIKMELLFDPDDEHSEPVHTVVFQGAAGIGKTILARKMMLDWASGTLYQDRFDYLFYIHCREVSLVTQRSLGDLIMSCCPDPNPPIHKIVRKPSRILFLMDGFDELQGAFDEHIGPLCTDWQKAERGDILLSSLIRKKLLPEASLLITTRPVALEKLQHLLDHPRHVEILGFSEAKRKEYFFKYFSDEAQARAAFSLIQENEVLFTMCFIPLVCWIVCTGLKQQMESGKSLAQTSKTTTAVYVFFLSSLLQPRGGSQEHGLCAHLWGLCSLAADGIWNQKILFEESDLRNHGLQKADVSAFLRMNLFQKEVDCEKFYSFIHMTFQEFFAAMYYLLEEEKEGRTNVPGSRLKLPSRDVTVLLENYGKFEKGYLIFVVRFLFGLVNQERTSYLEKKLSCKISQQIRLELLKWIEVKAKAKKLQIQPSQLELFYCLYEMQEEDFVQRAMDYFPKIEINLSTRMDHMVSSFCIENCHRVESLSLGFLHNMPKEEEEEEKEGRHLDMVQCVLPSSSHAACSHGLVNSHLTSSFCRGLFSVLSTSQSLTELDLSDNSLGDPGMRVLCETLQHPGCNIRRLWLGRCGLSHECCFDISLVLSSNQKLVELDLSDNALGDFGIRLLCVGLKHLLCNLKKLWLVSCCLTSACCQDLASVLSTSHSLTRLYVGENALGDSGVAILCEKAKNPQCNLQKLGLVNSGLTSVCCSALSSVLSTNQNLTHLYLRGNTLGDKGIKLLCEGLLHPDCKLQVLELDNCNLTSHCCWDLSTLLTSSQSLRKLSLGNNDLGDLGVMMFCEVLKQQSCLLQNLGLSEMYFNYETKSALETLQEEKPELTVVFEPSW
- METHOD_DESCRIPTION: IC50 of NLRP3 inhibitors in reducing IL-1β secretion by THP-1 cells (PMA, LPS, nigericin; ELISA)
- EXPERIMENTAL_SETUP: compound + nigericin 1 h
Please respond with Satisfied when measured IC50 is strictly beneath 40 nM, and with Not satisfied in all other cases.

Query: Confirm or reject: IC50 of CC#Cc1ccc2c(-c3ccc(C(F)(F)F)cc3O)nnc(NC[C@H](O)CO)c2c1 lies strictly below 40 nM
Result: Satisfied

Query: Confirm or reject: IC50 of Cc1cc(Cl)cc(O)c1-c1nnc(NCC(C)(C)O)c2cc(-n3ccnn3)ccc12 lies strictly below 40 nM
Result: Not satisfied

Query: Confirm or reject: IC50 of Cc1cc(Cl)cc(O)c1-c1nnc(NCC(C)(C)O)c2cc(-c3ccn(C)n3)ccc12 lies strictly below 40 nM
Result: Not satisfied

Query: Confirm or reject: IC50 of CC(C)(C(=O)NC1CC1)N1CCC[C@@H](Nc2nnc(-c3ccc(Cl)cc3O)c3ccncc23)C1 lies strictly below 40 nM
Result: Satisfied

Query: Confirm or reject: IC50 of CC(C)(O)CNc1nnc(-c2ccc3sc(F)cc3c2O)c2ccc(C#N)cc12 lies strictly below 40 nM
Result: Not satisfied

Query: Confirm or reject: IC50 of N#Cc1ccc2c(-c3ccc(Cl)cc3O)nnc(N[C@@H]3CCCN(C(=O)C4CC4)C3)c2c1 lies strictly below 40 nM
Result: Satisfied

Query: Confirm or reject: IC50 of CC#Cc1ccc2c(-c3ccc(Cl)cc3O)nnc(N[C@@H]3CCN(CCO)C3=O)c2c1 lies strictly below 40 nM
Result: Satisfied

Query: Confirm or reject: IC50 of CC#Cc1ccc2c(-c3ccc(C(F)(F)F)cc3O)nnc(N[C@@H]3CCC[C@H](O)C3)c2c1 lies strictly below 40 nM
Result: Not satisfied

* * *

Assign pIC50 to each entry below.
- TEST_TARGET: NLRP3 (Homo sapiens, UniProt Q96P20)
- Construct: endogenous in cells
- METHOD_DESCRIPTION: IC50 of NLRP3 inhibitors in reducing IL-1β secretion by THP-1 cells (PMA, LPS, nigericin; ELISA)
- EXPERIMENTAL_SETUP: compound + nigericin 1 h
- Text: Test Example 1 Experiment on Detection of IC50 of NLRP3 Inhibitors in Reducing the Level of IL-1β Secretion by THP-1 Cells In this experiment, we use the human monocyte THP-1 to study the inhibitory activity of NLRP3 inhibitor on the secretion of IL-Iβ by cells. […] (4) An appropriate amount of supernatant was taken out, diluted 100 times, and the content of IL-1β in the supernatant was detected using Human IL-1 beta Valukine ELISA kit.
Note: pIC50 values are expressed as the negative base-10 logarithm of concentration in M.

Record CC#Cc1ccc2c(-c3ccc(C(F)(F)F)cc3O)nnc(N[C@@H]3CCCC[C@H]3O)c2c1 / NLRP3 (Homo sapiens, UniProt Q96P20), pIC50 recorded as 7.64

Record CC#Cc1ccc2c(-c3c(C)cc(Cl)cc3O)nnc(NCC(C)(C)O)c2c1 [Compound 024-1] / NLRP3 (Homo sapiens, UniProt Q96P20), pIC50 recorded as 6.97

Record CC#Cc1ccc2c(-c3c(O)cc(C(F)(F)F)cc3F)nnc(NC[C@H](C)O)c2c1 / NLRP3 (Homo sapiens, UniProt Q96P20), pIC50 recorded as 7.64

Record CC(C(=O)N1CCCC1)N1CCC[C@@H](Nc2nnc(-c3ccc(Cl)cc3O)c3ccncc23)C1 (some centres unmarked) / NLRP3 (Homo sapiens, UniProt Q96P20), pIC50 recorded as 7.85

Record CC#Cc1ccc2c(-c3ccc(C(F)(F)F)cc3O)nnc(N[C@H]3C[C@@](C)(O)C3)c2c1 / NLRP3 (Homo sapiens, UniProt Q96P20), pIC50 recorded as 7.89

Record C[C@@H](C(N)=O)N1CCC[C@@H](Nc2nnc(-c3ccc(Cl)cc3O)c3ccncc23)C1 / NLRP3 (Homo sapiens, UniProt Q96P20), pIC50 recorded as 7.96

Record CC#Cc1ccc2c(-c3ccc(C(F)(F)F)cc3O)nnc(N[C@@H]3CCCN(C)C3)c2c1 / NLRP3 (Homo sapiens, UniProt Q96P20), pIC50 recorded as 7.41

Record Cc1cc(C(F)(F)F)cc(O)c1-c1nnc(NCC(C)(C)O)c2cc(C#N)ccc12 / NLRP3 (Homo sapiens, UniProt Q96P20), pIC50 recorded as 7.54

Record CC#Cc1ccc2c(-c3ccc(C(F)(F)F)cc3O)nnc(NCC(C)(C)O)c2c1 / NLRP3 (Homo sapiens, UniProt Q96P20), pIC50 recorded as 7.51

Record Cc1cc(Cl)cc(O)c1-c1nnc(NCC(C)(C)O)c2cc(-c3cnn(C)c3)ccc12 / NLRP3 (Homo sapiens, UniProt Q96P20), pIC50 recorded as 7.38

Record CC#Cc1ccc2c(-c3c(O)cc(C(F)(F)F)cc3F)nnc(NC[C@H](O)CO)c2c1 / NLRP3 (Homo sapiens, UniProt Q96P20), pIC50 recorded as 7.74

Record C[C@H](C(N)=O)N1CCC[C@@H](Nc2nnc(-c3ccc(Cl)cc3O)c3ccncc23)C1 / NLRP3 (Homo sapiens, UniProt Q96P20), pIC50 recorded as 7.77

Record NC(=O)N1CCC[C@@H](Nc2nnc(-c3ccc(Cl)cc3O)c3ccncc23)C1 / NLRP3 (Homo sapiens, UniProt Q96P20), pIC50 recorded as 7.41

Record CC#Cc1ccc2c(-c3ccc(Cl)cc3O)nnc(NC[C@H](O)CO)c2c1 / NLRP3 (Homo sapiens, UniProt Q96P20), pIC50 recorded as 8.01

Record CC#Cc1ccc2c(-c3c(C)cc(Cl)cc3O)nnc(NC[C@@H](C)O)c2c1 (mixture of isomers) / NLRP3 (Homo sapiens, UniProt Q96P20), pIC50 recorded as 7.85

Record Cc1cc(Cl)cc(O)c1-c1nnc(NCC(C)(C)O)c2cc(-n3cccn3)ccc12 / NLRP3 (Homo sapiens, UniProt Q96P20), pIC50 recorded as 7.46

Record CC#Cc1ccc2c(-c3c(O)cc(Cl)cc3F)nnc(NC[C@H](O)CO)c2c1 / NLRP3 (Homo sapiens, UniProt Q96P20), pIC50 recorded as 7.82

Where do these numbers come from? They come from patent US20260216182A1.
